Tested on: Clone V cells
Details: human, 16 h, 30 µM
Where a name gives a salt, the structure may show the parent alone.
The threshold is inclusive: Toxicity Assay Z-score of exactly -1 counts as class 1; values below receive class 0.

* COc1cc2ncnc(Nc3ccc(F)c(Cl)c3)c2cc1OCCCN1CCOCC1 | class 0
* CC[C@@]1(O)C(=O)OCc2c1cc1n(c2=O)Cc2cc3c(CN(C)C)c(O)ccc3nc2-1 [Topotecan hydrochloride] | class 1
* NC(=O)c1ccc(-c2nc(-c3ccc4c(c3)OCO4)c(-c3ccccn3)[nH]2)cc1 | class 0
* CNC(=O)c1ccc(N2C(=S)N(c3ccc(C#N)c(C(F)(F)F)c3)C(=O)C2(C)C)cc1F [Enzalutamide] | class 0
* O=C1CCC(N2C(=O)c3ccccc3C2=O)C(=O)N1 (centres unmarked) [Thalidomide] | class 0
* NC1(c2ccc(-c3nc4ccn5c(=O)[nH]nc5c4cc3-c3ccccc3)cc2)CCC1 | class 1
* Cc1cc2c(F)c(Oc3ncnn4cc(OC[C@@H](C)O)c(C)c34)ccc2[nH]1 | class 0
* Clc1ccc(Nc2nnc(Cc3ccncc3)c3ccccc23)cc1 | class 0
